This collection of values is drawn from ChEMBL document CHEMBL1129816.

# procedure summary: In vitro inhibitory activity against Steroid 5-alpha-reductase by using enzymic kinetics method
parameter measured: pKi
// pKi here means minus log10 of the molar concentration (mol/L)

Worked cases, pKi given:
- C[C@]12CCC(=O)C(C(F)(F)F)=C1CCC1C2CC[C@]2(C)C(=O)CCC12 (some centres undefined): 7.54
- CC(C)(C)NC(=O)[C@H]1CCC2C3CCC4=C(C(F)(F)F)C(=O)CC[C@]4(C)C3CC[C@@]21C (some centres undefined): 7.69

Next item in the queue.
Query: // returns reported pKi for input CC(C)(C)NC(=O)[C@H]1CC[C@H]2[C@@H]3CC[C@H]4NC(=O)C=C[C@]4(C)[C@H]3CC[C@]12C [FINASTERIDE]
Response: 7.26
